Form field: melting point (one value per entry).
metric: melting point

{"columns": ["molecule", "result"],
 "data": [
  ["COc1ccc2c(c1)c1c(n2Cc2ccccc2)CCCC1C(N)=O (stereo not drawn)", "154 to 156 °C"],
  ["NC(=O)C1CCCc2c1c1cc(OCCCP(=O)(O)O)ccc1n2Cc1ccccc1 (stereo not drawn)", "200 to 201 °C"],
  ["CCc1cc2c(cc1OCCCP(=O)(O)O)c1c(n2Cc2ccccc2)CCCC1C(N)=O (stereo not drawn)", "235 to 238 °C (dec.)"],
  ["NC(=O)C1CCCc2c1c1cc(OCCCC(=O)O)ccc1n2Cc1ccccc1 (stereo not drawn)", "199 to 200 °C"],
  ["CCCCCCCCc1cc2c(cc1OCCCP(=O)(O)O)c1c(n2Cc2ccccc2)CCCC1C(N)=O (stereo not drawn)", "160 to 162 °C"],
  ["COc1cc(OC)c2c3c(n(Cc4ccccc4)c2c1)CCCC3C(=O)NN (stereo not drawn)", "189 to 190 °C"]
]}
